- Method notes: in vivo
- Cond: dog, po, 10 mg/kg
Metric name: Tmax (h)

chemical_smiles=CN1C(=O)N(c2cc(Cl)cc(Cl)c2)C(=O)[C@]12CN(Cc1cc(C(=O)O)cs1)C[C@H]2c1ccc(C#N)cc1 value_reported=2

* * *

- Method notes: in vivo
- Cond: mouse, iv, 1 mg/kg
Metric name: clearance (mL/min/kg)

chemical_smiles=CN1C(=O)N(c2cc(Cl)cc(Cl)c2)C(=O)[C@]12CN(Cc1cc(C(=O)O)cs1)C[C@H]2c1ccc(C#N)cc1 value_reported=32

* * *

- Method notes: in vivo
- Cond: mouse, po, 1 mg/kg
Metric name: bioavailability (%)

chemical_smiles=CN1C(=O)N(c2cc(Cl)cc(Cl)c2)C(=O)[C@]12CN(Cc1cc(C(=O)O)cs1)C[C@H]2c1ccc(C#N)cc1 metric_name=bioavailability value_reported=41
